# TGT: human apelin receptor (Homo sapiens, UniProt P35414)
# Construct: expressed in transfected cells
# Sequence (P35414 whole entry): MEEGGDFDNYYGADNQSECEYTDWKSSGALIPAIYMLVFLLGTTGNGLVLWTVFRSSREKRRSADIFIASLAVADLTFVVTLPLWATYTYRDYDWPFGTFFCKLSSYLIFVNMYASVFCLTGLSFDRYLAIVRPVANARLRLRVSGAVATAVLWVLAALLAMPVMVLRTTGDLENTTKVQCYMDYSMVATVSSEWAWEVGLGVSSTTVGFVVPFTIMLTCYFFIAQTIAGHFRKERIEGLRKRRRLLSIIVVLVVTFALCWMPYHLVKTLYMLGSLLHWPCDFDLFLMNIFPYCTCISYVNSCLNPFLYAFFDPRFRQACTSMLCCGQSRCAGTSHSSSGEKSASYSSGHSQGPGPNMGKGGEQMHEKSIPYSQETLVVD
# TEST_DESCRIPTION: Determination of agonism on the human apelin receptor by a calcium fluorescence assay (FLIPR)
# Assay type: cell-based
# EXPERIMENTAL_CONDITIONS: HEK293 cells stably transfected with human apelin receptor and Giaq protein, Fluo-4 calcium fluorescence, read-out: EC50 (APJ agonism)
MEASURED_ATTRIBUTE: pEC50
// returns pEC50 (minus log10 of molar concentration), number only

query: Give recorded pEC50 with human apelin receptor (Homo sapiens, UniProt P35414) for the following compound: CCC[C@@H](CO)NC(=O)c1ccc2c(c1)nc(Cc1cccs1)n2C(CC)CC [Example 201]
result: 6.48

query: Notebook: pull reported pEC50 for human apelin receptor (Homo sapiens, UniProt P35414), entry CCCCC(NC(=O)c1ccc2c(c1)nc(Cc1cccs1)n2C(CC)CC)C(C)(C)C(=O)O (single isomer, unassigned) [Example 468]
result: 6.14

query: What is its pEC50 for human apelin receptor (Homo sapiens, UniProt P35414)? Entry: CCCC[C@@H](CO)NC(=O)c1ccc2c(c1)nc(Cc1cccs1)n2C(CC)CC [Example 199]
result: 6.15

query: Given the entry CCC(CC)n1c(Cc2cccs2)nc2cc(C(=O)N[C@H](Cc3noc(-c4ccccc4)n3)CC(C)C)ccc21 [Example 474] , what pEC50 was observed with human apelin receptor (Homo sapiens, UniProt P35414)?
result: 4.46

query: Could you share what pEC50 was measured for CCC(CC)n1c(Cc2cccs2)nc2cc(C(=O)N[C@@H](CC(C)C)C(=O)N(C)CC3CCCCO3)ccc21 (stereo partly drawn) [Example 395] , tested on human apelin receptor (Homo sapiens, UniProt P35414)?
result: 5.75

query: Could you share what pEC50 was measured for CCC(CC)n1c(Cc2cccs2)nc2cc(C(=O)N[C@@H](CC(C)C)C(=O)NC(C)CN(C)C)ccc21 (stereo partly drawn) [Example 243] , tested on human apelin receptor (Homo sapiens, UniProt P35414)?
result: 6.11

query: For the record CCC(CC)n1c(Cc2cccs2)nc2cc(C(=O)NC(CCO)C3CC3)ccc21 (stereo not drawn) [Example 213] , what value of pEC50 is listed for human apelin receptor (Homo sapiens, UniProt P35414)?
result: 4.52

query: Form field - read-out: pEC50; system: human apelin receptor (Homo sapiens, UniProt P35414); submitted item: CCC(CC)n1c(Cc2cccs2)nc2cc(C(=O)N[C@@H](CC(C)C)C(=O)N(C)Cc3n[nH]c(=O)[nH]3)ccc21 [Example 405]
result: 6.07

query: Form: Entry = CCC(CC)n1c(Cc2cccs2)nc2cc(C(=O)N[C@@H](CC(C)C)C(=O)NCCOc3ccccc3)ccc21 [Example 366] | System = human apelin receptor (Homo sapiens, UniProt P35414) | pEC50 = ____
result: 4.78

query: Any idea what pEC50 came out for CCC(CC)n1c(CC2CCCC2)nc2cc(C(=O)N[C@H](CO)C(C)C)ccc21 [Example 187] on human apelin receptor (Homo sapiens, UniProt P35414)?
result: 4.54

query: Item: CCC(C)n1c(Cc2cccs2)nc2cc(C(=O)N[C@@H](CC(C)C)C(=O)O)ccc21 (stereo partly drawn) [Example 147] Test system: human apelin receptor (Homo sapiens, UniProt P35414) Read-out: pEC50 Value: ?
result: 5.34

query: Missing value: pEC50, human apelin receptor (Homo sapiens, UniProt P35414), entry CCCC(CCO)NC(=O)c1ccc2c(c1)nc(Cc1cccs1)n2C(CC)CC (single isomer, unassigned) [Example 470] . Fill in?
result: 6.63

query: Requested read-out pEC50, target or system human apelin receptor (Homo sapiens, UniProt P35414), entry O=C(N[C@@H](Cc1ccccc1)C(=O)O)c1ccc2c(c1)nc(Cc1cccs1)n2C1CCCCC1C(F)(F)F (stereo partly drawn) [Example 89]
result: 5.03

query: Provide value of pEC50 for this record tested with human apelin receptor (Homo sapiens, UniProt P35414): CCC[C@H](NC(=O)c1ccc2c(c1)nc(Cc1cccs1)n2C1CCCCC1C(F)(F)F)C(=O)O (stereo partly drawn) [Example 88]
result: 6.12

query: Notebook: pull reported pEC50 for human apelin receptor (Homo sapiens, UniProt P35414), entry CCCC[C@H](NC(=O)c1ccc2c(c1)nc(Cc1cccs1)n2C1CCCCC1C)C(=O)O (single isomer, unassigned) [Example 421]
result: 4.70
